TARGET DESC: human NaV subtype, like NaV 1.7 (Homo sapiens, UniProt Q15858)
Sequence (Q15858 whole entry): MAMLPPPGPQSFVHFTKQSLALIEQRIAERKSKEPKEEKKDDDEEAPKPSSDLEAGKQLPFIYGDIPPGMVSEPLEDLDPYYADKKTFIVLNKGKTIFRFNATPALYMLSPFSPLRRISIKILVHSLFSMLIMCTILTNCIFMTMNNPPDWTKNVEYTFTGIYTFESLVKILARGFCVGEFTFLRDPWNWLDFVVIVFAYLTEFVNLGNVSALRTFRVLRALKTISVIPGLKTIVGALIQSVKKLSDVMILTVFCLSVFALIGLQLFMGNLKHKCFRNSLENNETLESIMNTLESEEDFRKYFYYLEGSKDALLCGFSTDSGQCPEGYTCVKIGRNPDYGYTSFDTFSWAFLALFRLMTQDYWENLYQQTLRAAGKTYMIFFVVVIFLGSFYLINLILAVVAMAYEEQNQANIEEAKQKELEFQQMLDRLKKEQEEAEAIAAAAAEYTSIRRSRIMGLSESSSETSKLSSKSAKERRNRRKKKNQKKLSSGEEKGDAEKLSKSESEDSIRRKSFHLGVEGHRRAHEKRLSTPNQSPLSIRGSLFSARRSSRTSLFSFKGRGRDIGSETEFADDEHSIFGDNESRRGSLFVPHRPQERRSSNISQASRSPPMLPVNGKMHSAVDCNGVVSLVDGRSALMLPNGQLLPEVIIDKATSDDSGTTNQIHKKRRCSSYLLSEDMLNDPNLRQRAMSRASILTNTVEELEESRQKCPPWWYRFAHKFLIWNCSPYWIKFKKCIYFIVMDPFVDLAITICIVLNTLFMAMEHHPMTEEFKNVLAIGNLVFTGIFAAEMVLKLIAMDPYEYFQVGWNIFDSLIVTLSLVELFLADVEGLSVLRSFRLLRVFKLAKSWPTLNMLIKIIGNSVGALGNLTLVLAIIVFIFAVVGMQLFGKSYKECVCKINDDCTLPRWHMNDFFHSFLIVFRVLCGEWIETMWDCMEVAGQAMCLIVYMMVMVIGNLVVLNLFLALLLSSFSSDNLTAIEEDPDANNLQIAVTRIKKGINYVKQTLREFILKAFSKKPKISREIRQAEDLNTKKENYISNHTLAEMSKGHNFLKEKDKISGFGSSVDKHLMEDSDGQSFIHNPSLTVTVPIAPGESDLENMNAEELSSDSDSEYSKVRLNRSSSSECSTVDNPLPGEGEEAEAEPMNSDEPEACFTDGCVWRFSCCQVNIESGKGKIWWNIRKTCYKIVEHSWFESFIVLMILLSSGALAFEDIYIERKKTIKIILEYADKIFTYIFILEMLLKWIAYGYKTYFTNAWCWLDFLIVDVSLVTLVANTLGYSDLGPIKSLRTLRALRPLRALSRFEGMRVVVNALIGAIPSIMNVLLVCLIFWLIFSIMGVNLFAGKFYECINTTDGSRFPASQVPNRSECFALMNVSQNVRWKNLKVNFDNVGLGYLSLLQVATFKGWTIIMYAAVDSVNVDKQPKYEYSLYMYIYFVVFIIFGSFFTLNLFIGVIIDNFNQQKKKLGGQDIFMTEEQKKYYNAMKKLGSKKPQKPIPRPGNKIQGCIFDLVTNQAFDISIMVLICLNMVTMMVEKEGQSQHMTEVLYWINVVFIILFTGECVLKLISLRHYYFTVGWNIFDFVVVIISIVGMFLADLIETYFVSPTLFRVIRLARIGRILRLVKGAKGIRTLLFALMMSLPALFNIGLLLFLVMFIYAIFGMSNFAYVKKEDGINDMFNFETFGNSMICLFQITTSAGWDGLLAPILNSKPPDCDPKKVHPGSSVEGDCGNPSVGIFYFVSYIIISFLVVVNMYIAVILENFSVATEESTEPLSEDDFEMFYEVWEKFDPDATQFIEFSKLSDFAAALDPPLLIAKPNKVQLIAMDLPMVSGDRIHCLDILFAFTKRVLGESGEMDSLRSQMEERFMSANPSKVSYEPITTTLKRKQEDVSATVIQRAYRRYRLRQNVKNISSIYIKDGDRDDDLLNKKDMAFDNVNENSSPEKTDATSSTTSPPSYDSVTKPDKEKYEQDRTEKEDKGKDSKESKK
MEASUREMENT NOTES: E-VIPR optical membrane potential assay with electrical stimulation
PROTOCOL CONDITIONS: active against one or more sodium channels; Table 3 does not name the assay or NaV subtype; read-out: Binned Activity Data (IC50)
pIC50: −log10 of the molar value.
Known pIC50 of a selection of molecules
REPORTED METRIC: pIC50

smiles_input=COc1ccc(C(=O)N2CCC3(CC2)c2ccc(C(=O)C(F)(F)F)n2CCN3C)cc1OC(C)C reported="≥ 5.70"
smiles_input=CC(=O)c1ccc2n1CCN(C)C21CCN(C(=O)c2ccc(S(=O)(=O)NC3CC3)cc2)CC1 reported="< 5.30"
smiles_input=COc1ccc(C(=O)N2CCC3(CC2)NC(C)(C)Cn2c(C(C)=O)ccc23)cc1Cl reported="< 5.30"
smiles_input=CN1CCn2c(C(F)(F)F)ccc2C12CCN(C(=O)c1ccc(C(C)(C)O)c(F)c1)CC2 reported="≥ 5.70"
smiles_input=COc1cc(C(=O)N2CCC3(CC2)N[C@H]2CCCC[C@H]2n2cccc23)ccc1OCCC(C)C reported="≥ 5.70"
smiles_input=CN1CCn2c(ccc2C(F)(F)C(F)(F)F)C12CCN(C(=O)c1ccc(C(C)(C)O)cc1)CC2 reported="≥ 5.70"
smiles_input=Cc1cc(C(=O)N2CCC3(CC2)c2ccc(C(=O)C(F)(F)F)n2CCN3C)ccc1Cl reported="5.30 to 5.70"
smiles_input=CN1CCn2c(C(=O)C(F)(F)F)ccc2C12CCN(C(=O)c1ccc(COCC(F)(F)F)cc1)CC2 reported="≥ 5.70"

----------
TARGET DESC: human NaV subtype, like NaV 1.7 (Homo sapiens, UniProt Q15858)
MEASUREMENT NOTES: E-VIPR optical membrane potential assay with electrical stimulation
PROTOCOL CONDITIONS: active against one or more sodium channels; Table 3 does not name the assay or NaV subtype; read-out: Binned Activity Data (IC50)
pIC50: −log10 of the molar value.
Known pIC50 of a selection of compounds
REPORTED METRIC: pIC50

smiles_input=CN1CCn2c(C(F)(F)F)ccc2C12CCN(C(=O)c1ccc(S(=O)(=O)NC3CC3)cc1)CC2 reported_metric=pIC50 reported="≥ 5.70"
smiles_input=Cc1cc(-c2ccc(C(=O)N3CCC4(CC3)c3ccc(C(=O)C(F)(F)F)n3CCN4C)cc2C)ccn1 reported_metric=pIC50 reported="≥ 5.70"
smiles_input=Cc1cc(C(=O)N2CCC3(CC2)c2ccc(C(=O)C(C)(C)C)n2CCN3C)ccc1S(=O)(=O)C(C)C reported_metric=pIC50 reported="≥ 5.70"
smiles_input=COc1c(F)cccc1C(=O)N1CCC2(CC1)c1ccc(C(=O)C(F)(F)F)n1C[C@H](C)N2C reported_metric=pIC50 reported="≥ 5.70"
smiles_input=COc1ccc(C(=O)N2CCC3(CC2)c2ccc(C(=O)C(C)(C)C)n2CCN3C)cc1C(F)(F)F reported_metric=pIC50 reported="≥ 5.70"
smiles_input=CN1CCn2c(C(=O)C(F)(F)F)ccc2C12CCN(C(=O)c1ccc(N3CCCCC3)cc1)CC2 reported_metric=pIC50 reported="≥ 5.70"
smiles_input=COCCN1CCn2c(C(F)(F)F)ccc2C12CCN(C(=O)c1ccc(OC(C)C)c(OC)c1)CC2 reported_metric=pIC50 reported="≥ 5.70"
smiles_input=CCOC(=O)N1CCn2c(C#N)ccc2C12CCN(C(=O)c1ccc(OC(C)C)c(C)c1)CC2 reported_metric=pIC50 reported="5.30 to 5.70"
smiles_input=Cc1cc(C(=O)N2CCC3(CC2)c2ccc(C(=O)C(F)(F)F)n2CCN3C)ccc1-c1cnn(C)c1 reported_metric=pIC50 reported="5.30 to 5.70"
smiles_input=CCOC(=O)N1CCn2c(C#N)ccc2C12CCN(C(=O)c1ccc(OC(C)C)c(C)n1)CC2 reported_metric=pIC50 reported="≥ 5.70"
smiles_input=CCCN(CCC)S(=O)(=O)c1ccc(C(=O)N2CCC3(CC2)c2ccc(C(=O)C(F)(F)F)n2CCN3C)cc1 reported_metric=pIC50 reported="≥ 5.70"
smiles_input=CC(C)Oc1ccc(C(=O)N2CCC3(CC2)c2ccc(C(F)(F)F)n2CCN3C)cc1 reported_metric=pIC50 reported="≥ 5.70"
smiles_input=CN1CCn2c(C(=O)C(C)(C)C)ccc2C12CCN(C(=O)c1ccc(O)c(Cl)c1)CC2 reported_metric=pIC50 reported="≥ 5.70"
smiles_input=CC(=O)c1cc2n(c1)CC(C)(C)NC21CCN(C(=O)c2ccc(OC(C)C)c(C(F)(F)F)c2)CC1 reported_metric=pIC50 reported="< 5.30"
smiles_input=CC(=O)c1ccc2n1CC(C)(C)NC21CCN(C(=O)c2ccc(OC(C)C)c(C(F)(F)F)c2)CC1 reported_metric=pIC50 reported="≥ 5.70"
smiles_input=CC(C)Oc1ccc(C(=O)N2CCC3(CC2)c2c(C#N)cc(C(F)(F)F)n2CCN3C)cc1Cl reported_metric=pIC50 reported="≥ 5.70"
smiles_input=Cc1nc(C(=O)N2CCC3(CC2)c2cc(C(=O)C(F)(F)F)cn2C(C)(C)CN3C)ccc1OC(C)C reported_metric=pIC50 reported="< 5.30"
smiles_input=CCCOc1cc(C(=O)N2CCC3(CC2)c2ccc(C(=O)C(F)(F)F)n2CCN3C)ccc1OC reported_metric=pIC50 reported="≥ 5.70"
smiles_input=CC1(C)Cn2c(C(=O)C(F)(F)F)ccc2C2(CCN(C(=O)c3ccc(COCC(F)(F)F)cc3)CC2)N1 reported_metric=pIC50 reported="≥ 5.70"
smiles_input=CC(C)CS(=O)(=O)c1ccc(C(=O)N2CCC3(CC2)c2ccc(C(F)(F)F)n2CCN3C)cc1 reported_metric=pIC50 reported="≥ 5.70"
smiles_input=CN1CCn2c(C(=O)C3(C)CC3)ccc2C12CCN(C(=O)c1ccc(S(=O)(=O)C(C)(C)C)cc1)CC2 reported_metric=pIC50 reported="< 5.30"
smiles_input=CC(=O)c1ccc2n1CCN(C)C21CCN(C(=O)c2ccc(C(C)(C)C)cc2)CC1 reported_metric=pIC50 reported="< 5.30"
smiles_input=CN1CCn2c(C(=O)C3CC3)ccc2C12CCN(C(=O)c1ccc(C3CCCCC3)cc1)CC2 reported_metric=pIC50 reported="≥ 5.70"
smiles_input=CC(C)Oc1ccc(C(=O)N2CCC3(CC2)NC(C)(C)Cn2c(C(=O)C(F)(F)F)ccc23)cc1Cl reported_metric=pIC50 reported="≥ 5.70"
smiles_input=Cc1cc(C(=O)N2CCC3(CC2)c2c(Cl)cc(C(F)(F)F)n2CCN3C)ccc1OC(C)C reported_metric=pIC50 reported="≥ 5.70"
smiles_input=CC(C)Oc1ccc(C(=O)N2CCC3(CC2)c2ccc(C(=O)C(F)(F)F)n2CCN3C)cc1 reported_metric=pIC50 reported="≥ 5.70"
smiles_input=CC(C)Oc1ccc(C(=O)N2CCC3(CC2)c2ccc(C(=O)C(C)(C)C)n2CCN3C)cc1F reported_metric=pIC50 reported="≥ 5.70"
smiles_input=CC(C)Oc1ccc(C(=O)N2CCC3(CC2)c2ccc(C(=O)C(F)(F)F)n2C[C@H](C)N3C)cc1F reported_metric=pIC50 reported="≥ 5.70"
smiles_input=CCC(=O)c1ccc2n1CCN(C)C21CCN(C(=O)c2ccc(OC(C)C)c(Cl)c2)CC1 reported_metric=pIC50 reported="≥ 5.70"
smiles_input=CC(C)S(=O)(=O)c1ccc(C(=O)N2CCC3(CC2)c2ccc(C(=O)C(F)(F)F)n2C[C@H](C)N3C)cc1 reported_metric=pIC50 reported="≥ 5.70"

----------
TARGET DESC: human NaV subtype, like NaV 1.7 (Homo sapiens)
MEASUREMENT NOTES: E-VIPR optical membrane potential assay with electrical stimulation
Assay type: cell-based
PROTOCOL CONDITIONS: active against one or more sodium channels; Table 3 does not name the assay or NaV subtype; read-out: Binned Activity Data (IC50)
pIC50: −log10 of the molar value.
Known pIC50 of a selection of compounds
REPORTED METRIC: pIC50

smiles_input=CC(=O)c1ccc2n1CCN(C)C21CCN(C(=O)c2ccc(-c3ccccc3)cc2)CC1 reported="< 5.30"
smiles_input=C[C@H]1Cn2c(C(=O)C(F)(F)F)ccc2C2(CCN(C(=O)c3ccc(S(=O)(=O)C(F)(F)F)cc3)CC2)N1C reported="≥ 5.70"
smiles_input=COc1ccc(C(=O)N2CCC3(CC2)c2ccc(C(=O)C4(C)CC4)n2CCN3C)cc1C reported="≥ 5.70"
smiles_input=COc1ccc(C(=O)N2CCC3(CC2)c2ccc(C(=O)C(F)(F)F)n2C(C)(C)CN3C)cc1C(F)(F)F reported="< 5.30"
smiles_input=CN(C)c1ncccc1C(=O)N1CCC2(CC1)c1ccc(C(F)(F)F)n1CCN2C reported="< 5.30"
smiles_input=CCNc1cc(C)nc2c(C(=O)N3CCC4(CC3)c3ccc(C(F)(F)F)n3CCN4C)cnn12 reported="≥ 5.70"
smiles_input=Cc1cc(C(=O)N2CCC3(CC2)c2ccc(C(=O)C(F)(F)F)n2CCN3C)ccc1-c1cnc(N(C)C)nc1 reported="≥ 5.70"

Attribution: patent US8916565B2
